assay: amyloid nucleation score (Sup35N fusion, yeast selection) (log enrichment); library NNK3; higher = more nucleation; inactive = no reads after selection;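 further: zero at mode of non-aggregating sequences after 7 days selection at 30°C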
measure.name: amyloid nucleation score

1) DRFEMPDVLWCRDYCNIARS :: inactive
2) KCMGVSWLSNIVRSIRVIIS :: inactive
3) CCWYPYEYIINYASVTSQFP :: 1.56
4) HMMTRAASVSLSVQQ :: inactive
5) IHFNWLIYITNTYVRRIFRC :: inactive
6) IPALIVISQYRGANRFDCAF :: inactive

For each of the items listed, what is its amyloid nucleation score?
1. NMLCTSL
2. FYLFIVVRMVVLVTDVIVVG
3. VASSKQYLGTVTYLDGVA

Given back:
1.21
inactive
inactive
